Assay: Acid dissociation constant (pKa) determined by computation (ACD/Labs Software Package 1; Gaussian 16 DFT where not calculable)
Conditions: acid generated from photoacid generator B
measured-parameter: Difference between acid dissociation constant a1 and acid dissociation constant a2

# annotated cases, reported Difference between acid dissociation constant a1 and acid dissociation constant a2 shown
>>> value("CS(=O)(=O)NS(=O)(=O)CCCOC(=O)C(F)(F)S(=O)(=O)O [Compound B-11]")
3.23
>>> value("Cc1cc([S+](c2ccc(C(F)(F)F)cc2)c2ccc(C(F)(F)F)cc2)cc(C)c1OCC(=O)OC(C)(C)C.Cc1cc([S+](c2ccc(C(F)(F)F)cc2)c2ccc(C(F)(F)F)cc2)cc(C)c1OCC(=O)OC(C)(C)C.Cc1cc([S+](c2ccc(C(F)(F)F)cc2)c2ccc(C(F)(F)F)cc2)cc(C)c1OCC(=O)OC(C)(C)C.O=C([N-]S(=O)(=O)C(F)(F)C(F)(F)C(F)(F)S(=O)(=O)[O-])c1ccc(OS(=O)(=O)C(F)(F)C(F)(F)C(F)(F)S(=O)(=O)[O-])cc1 [Compound B-25]")
2.53

I = CC(C)(C#N)C(=O)[N-]S(=O)(=O)C(F)(F)C(F)(F)C(F)(F)S(=O)(=O)[N-]S(C)(=O)=O.Cc1ccc(-[s+]2c3ccccc3c3ccccc32)cc1.Cc1ccc(-[s+]2c3ccccc3c3ccccc32)cc1 [Compound B-15]
II = O=C(COC(=O)C(F)(F)S(=O)(=O)O)NC(=O)C(F)(F)F [Compound B-4]
Prompt: In terms of reported Difference between acid dissociation constant a1 and acid dissociation constant a2, does I or II have the smaller number? Field: selected label. Fill in the label of the entry you choose.
Response: I
